Entry source: ChEMBL document CHEMBL2203129

assay: Inhibition of CREB-mediated gene transcription in human HEK293T cells by renilla luciferase reporter assay; type: cell-based; conditions: HEK-293T
QUANTITY_KIND: IC50 (µM)
Express the result in µM but write the number alone.

Worked cases, IC50 given:
{"SMILES_STRUCTURE": "O=C(Nc1ccncc1)c1cc2ccccc2cc1O", "IC50 [µM]": 20.7}
{"SMILES_STRUCTURE": "O=C(Nc1ccc(Cl)cc1)c1cc2ccccc2cc1O", "IC50 [µM]": 2.29}
{"SMILES_STRUCTURE": "O=C(Nc1ccc(F)c(Cl)c1)c1cc2ccccc2cc1O", "IC50 [µM]": 2.29}
{"SMILES_STRUCTURE": "O=C(Nc1ccc(C(F)(F)F)cc1)c1cc2ccccc2cc1O", "IC50 [µM]": 6.75}
{"SMILES_STRUCTURE": "O=C(Nc1cccc(Cl)c1)c1cc2ccccc2cc1O", "IC50 [µM]": 2.7}

compound O=C(Nc1ccc(Br)cc1)c1cc2ccccc2cc1O , IC50 observed: 3.45
